Data provenance is BigSolDB 2.1.

Settings: in ethanol, 288.15 K
metric: solubility (mole fraction)

Summary for this compound, N#CCc1ccc([N+](=O)[O-])cc1 : solubility (mole fraction) is 0.00279

====

Settings: in ethyl acetate, 283.15 K
metric: solubility (mole fraction)
Answers are plain numbers.

Summary for this compound, N#CCc1ccc([N+](=O)[O-])cc1 : solubility (mole fraction) is 0.13

====

Settings: in water, 288.15 K
metric: solubility (mole fraction)
Answers are plain numbers.

Summary for this molecule, N#CCc1ccc([N+](=O)[O-])cc1 : solubility (mole fraction) is 2.48e-05

====

Conditions: in acetone, 288.15 K
metric: solubility (mole fraction)
Give bare numbers.

Summary for this compound, N#CCc1ccc([N+](=O)[O-])cc1 : solubility (mole fraction) is 0.0753

====

Settings: in acetic acid, 293.15 K
metric: solubility (mole fraction)
Give bare numbers.

Summary for this compound, N#CCc1ccc([N+](=O)[O-])cc1 : solubility (mole fraction) is 0.014

====

Settings: in toluene, 333.15 K
metric: solubility (mole fraction)
One number for each entry.

Summary for this compound, N#CCc1ccc([N+](=O)[O-])cc1 : solubility (mole fraction) is 0.0657

====

Conditions: in isopropanol, 278.15 K
metric: solubility (mole fraction)
Give bare numbers.

Summary for this compound, N#CCc1ccc([N+](=O)[O-])cc1 : solubility (mole fraction) is 0.000901

====

Settings: in isopropanol, 288.15 K
metric: solubility (mole fraction)
One number for each entry.

Summary for this compound, N#CCc1ccc([N+](=O)[O-])cc1 : solubility (mole fraction) is 0.00153

====

Settings: in n-propanol, 333.15 K
metric: solubility (mole fraction)
One number for each entry.

Summary for this compound, N#CCc1ccc([N+](=O)[O-])cc1 : solubility (mole fraction) is 0.017

====

Settings: in n-butanol, 283.15 K
metric: solubility (mole fraction)
Answers are plain numbers.

Summary for this compound, N#CCc1ccc([N+](=O)[O-])cc1 : solubility (mole fraction) is 0.00147

====

Conditions: in water, 318.15 K
metric: solubility (mole fraction)
Give bare numbers.

Summary for this compound, N#CCc1ccc([N+](=O)[O-])cc1 : solubility (mole fraction) is 7.89e-05

====

Conditions: in water, 323.15 K
metric: solubility (mole fraction)
One number for each entry.

Summary for this compound, N#CCc1ccc([N+](=O)[O-])cc1 : solubility (mole fraction) is 9.63e-05

====

Settings: in 1,4-dioxane, 303.15 K
metric: solubility (mole fraction)

Summary for this molecule, N#CCc1ccc([N+](=O)[O-])cc1 : solubility (mole fraction) is 0.0888

====

Conditions: in 2-butanone, 293.15 K
metric: solubility (mole fraction)
One number for each entry.

Summary for this compound, N#CCc1ccc([N+](=O)[O-])cc1 : solubility (mole fraction) is 0.0717

====

Conditions: in methanol, 318.15 K
metric: solubility (mole fraction)
Numbers only.

Summary for this compound, N#CCc1ccc([N+](=O)[O-])cc1 : solubility (mole fraction) is 0.0136

====

Conditions: in cyclohexane, 333.15 K
metric: solubility (mole fraction)
Answers are plain numbers.

Summary for this compound, N#CCc1ccc([N+](=O)[O-])cc1 : solubility (mole fraction) is 0.000822

====

Settings: in ethylbenzene, 278.15 K
metric: solubility (mole fraction)

Summary for this compound, N#CCc1ccc([N+](=O)[O-])cc1 : solubility (mole fraction) is 0.00564

====

Settings: in toluene, 303.15 K
metric: solubility (mole fraction)
Give bare numbers.

Summary for this molecule, N#CCc1ccc([N+](=O)[O-])cc1 : solubility (mole fraction) is 0.0208

====

Details: in ethylbenzene, 288.15 K
metric: solubility (mole fraction)
Answers are plain numbers.

Summary for this compound, N#CCc1ccc([N+](=O)[O-])cc1 : solubility (mole fraction) is 0.00784

====

Details: in acetonitrile, 333.15 K
metric: solubility (mole fraction)
Answers are plain numbers.

Summary for this compound, N#CCc1ccc([N+](=O)[O-])cc1 : solubility (mole fraction) is 0.228

====

Conditions: in acetonitrile, 283.15 K
metric: solubility (mole fraction)
Numbers only.

Summary for this compound, N#CCc1ccc([N+](=O)[O-])cc1 : solubility (mole fraction) is 0.0437

====

Details: in cyclohexane, 288.15 K
metric: solubility (mole fraction)
Give bare numbers.

Summary for this compound, N#CCc1ccc([N+](=O)[O-])cc1 : solubility (mole fraction) is 0.000111

====

Details: in cyclohexane, 328.15 K
metric: solubility (mole fraction)
One number for each entry.

Summary for this compound, N#CCc1ccc([N+](=O)[O-])cc1 : solubility (mole fraction) is 0.000639

====

Conditions: in toluene, 313.15 K
metric: solubility (mole fraction)
One number for each entry.

Summary for this compound, N#CCc1ccc([N+](=O)[O-])cc1 : solubility (mole fraction) is 0.0298

====

Conditions: in acetic acid, 313.15 K
metric: solubility (mole fraction)

Summary for this compound, N#CCc1ccc([N+](=O)[O-])cc1 : solubility (mole fraction) is 0.0272

====

Details: in ethanol, 293.15 K
metric: solubility (mole fraction)
Answers are plain numbers.

Summary for this compound, N#CCc1ccc([N+](=O)[O-])cc1 : solubility (mole fraction) is 0.00352

====

Conditions: in acetic acid, 303.15 K
metric: solubility (mole fraction)

Summary for this compound, N#CCc1ccc([N+](=O)[O-])cc1 : solubility (mole fraction) is 0.0195

====

Conditions: in 2-butanone, 333.15 K
metric: solubility (mole fraction)
Numbers only.

Summary for this molecule, N#CCc1ccc([N+](=O)[O-])cc1 : solubility (mole fraction) is 0.216

====

Conditions: in 2-butanone, 298.15 K
metric: solubility (mole fraction)
Answers are plain numbers.

Summary for this molecule, N#CCc1ccc([N+](=O)[O-])cc1 : solubility (mole fraction) is 0.0828

====

Settings: in n-propanol, 323.15 K
metric: solubility (mole fraction)
Answers are plain numbers.

Summary for this compound, N#CCc1ccc([N+](=O)[O-])cc1 : solubility (mole fraction) is 0.0107

====

Conditions: in toluene, 293.15 K
metric: solubility (mole fraction)
One number for each entry.

Summary for this compound, N#CCc1ccc([N+](=O)[O-])cc1 : solubility (mole fraction) is 0.0148

====

Conditions: in ethanol, 283.15 K
metric: solubility (mole fraction)
One number for each entry.

Summary for this compound, N#CCc1ccc([N+](=O)[O-])cc1 : solubility (mole fraction) is 0.00223

====

Conditions: in water, 328.15 K
metric: solubility (mole fraction)

Summary for this compound, N#CCc1ccc([N+](=O)[O-])cc1 : solubility (mole fraction) is 0.000117
